tested on: MCF7; test: Inhibition of collagen synthesis in human MCF7 cells assessed as 5-[3H]-proline incorporation into proteins susceptible to action of bacterial collagenase after 24 hrs; format: functional, cell-based
pIC50: −log10 of the molar value.
Give true (1) when the value for pIC50 is at least 4. Give false (0) when it is less.

compound=Cc1nn(C)c2nnc(Nc3ccc(S(=O)(=O)N4CCCNCC4)cc3)nc12 class_name="false (0)"
compound=Cc1nn(C)c2nnc(Nc3ccc(S(=O)(=O)NCCN4CCOCC4)cc3)nc12 class_name="false (0)"
compound=Cc1nn(C)c2nnc(Nc3ccc(S(=O)(=O)N4CCOCC4)cc3)nc12 class_name="false (0)"
compound=Cc1nn(C)c2nnc(Nc3ccc(S(=O)(=O)N4CCCCC4)cc3)nc12 class_name="false (0)"
compound="O=C(O)CCCc1ccc(N(CCCl)CCCl)cc1 [CHLORAMBUCIL]" class_name="true (1)"
compound=Cc1nn(C)c2nnc(Nc3ccc(S(=O)(=O)NCCO)cc3)nc12 class_name="false (0)"
compound=Cc1nn(C)c2nnc(Nc3ccc(S(=O)(=O)N4CCCC4)cc3)nc12 class_name="false (0)"
compound=Cc1nn(C)c2nnc(Nc3ccc(S(=O)(=O)N4CCN(C)CC4)cc3)nc12 class_name="true (1)"

Does pIC50 meet or surpass 4 for Cc1nn(C)c2nnc(Nc3ccc(S(=O)(=O)N4CCNCC4)cc3)nc12 ?
false (0)
